Just for reference, patent EP4800012A1 is where these values come from.

Target: PARP7 (Homo sapiens)
Construct: purchased BPS 80527
Sequence (Q7Z3E1 1-657): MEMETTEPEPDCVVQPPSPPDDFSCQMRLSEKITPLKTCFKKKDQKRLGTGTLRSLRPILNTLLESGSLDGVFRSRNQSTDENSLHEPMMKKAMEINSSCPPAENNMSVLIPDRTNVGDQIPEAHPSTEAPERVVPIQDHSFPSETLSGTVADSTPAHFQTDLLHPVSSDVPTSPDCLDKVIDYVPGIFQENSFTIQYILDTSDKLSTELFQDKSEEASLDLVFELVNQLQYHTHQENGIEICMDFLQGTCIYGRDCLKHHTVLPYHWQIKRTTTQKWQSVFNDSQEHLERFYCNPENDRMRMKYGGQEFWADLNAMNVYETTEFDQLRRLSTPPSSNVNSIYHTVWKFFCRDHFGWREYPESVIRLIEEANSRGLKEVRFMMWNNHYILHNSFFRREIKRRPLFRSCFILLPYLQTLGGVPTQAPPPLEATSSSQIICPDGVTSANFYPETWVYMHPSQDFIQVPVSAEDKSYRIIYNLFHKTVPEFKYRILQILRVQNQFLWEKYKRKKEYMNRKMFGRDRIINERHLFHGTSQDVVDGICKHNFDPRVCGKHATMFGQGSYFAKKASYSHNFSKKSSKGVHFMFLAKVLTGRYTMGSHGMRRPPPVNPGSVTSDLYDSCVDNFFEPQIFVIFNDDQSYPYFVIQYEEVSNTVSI
Experiment: PARP7 TR-FRET binding inhibition (displacement of probe RBN011147)
Conditions: TR-FRET, Biotin-labeled probe RBN011147; read-out: PARP7 binding inhibition IC50
IC50 listing for selected compounds.

> print(dat)
                                   compound  observed.measurement
1  O=C(CCc1c[nH]c(=O)c(C(F)(F)F)c1N1CC2(CCC2)C1)Nc1ccc(-c2ncc(C(F)(F)F)s2)cn1             < 0.01 µM
2  O=C(NCCCC(Nc1cn[nH]c(=O)c1C(F)(F)F)C(=O)N1CCCC1)c1ccc(-c2ncc(C(F)(F)F)s2)cc1 (stereo not shown)             < 0.01 µM
3  CC(CCNC(=O)c1cccc2c1[nH]c(=O)n2-c1ncc(C(F)(F)F)cn1)Nc1cn[nH]c(=O)c1C(F)(F)F (stereo not shown)        0.03 to 0.1 µM
4  CC(CCCNC(=O)c1ccc(-c2ncc(N3CCOCC3)cn2)cc1)Nc1cn[nH]c(=O)c1C(F)(F)F (stereo not shown)             < 0.01 µM
5  O=C(NCCCC(Nc1cn[nH]c(=O)c1C(F)(F)F)C(=O)N1CC2(CCC2)C1)c1cnc(-c2ncc(C(F)(F)F)cn2)cn1 (stereo not shown)       0.01 to 0.03 µM
6  CC(CCCN(C)C(=O)c1cnc(N2CCN(C3CC3)CC2)cn1)Nc1cn[nH]c(=O)c1C(F)(F)F (stereo not shown)              > 0.1 µM

Now take the following compound into account.
Record request: IC50 value, item CC(CCCNC(=O)c1ccc(-c2ncc(N3CC(F)C3)cn2)cc1)Nc1cn[nH]c(=O)c1C(F)(F)F (stereo not shown) < 0.01 µM

* * *

Target: PARP7 (Homo sapiens, UniProt Q7Z3E1)
Construct: purchased BPS 80527
Sequence (Q7Z3E1 1-657): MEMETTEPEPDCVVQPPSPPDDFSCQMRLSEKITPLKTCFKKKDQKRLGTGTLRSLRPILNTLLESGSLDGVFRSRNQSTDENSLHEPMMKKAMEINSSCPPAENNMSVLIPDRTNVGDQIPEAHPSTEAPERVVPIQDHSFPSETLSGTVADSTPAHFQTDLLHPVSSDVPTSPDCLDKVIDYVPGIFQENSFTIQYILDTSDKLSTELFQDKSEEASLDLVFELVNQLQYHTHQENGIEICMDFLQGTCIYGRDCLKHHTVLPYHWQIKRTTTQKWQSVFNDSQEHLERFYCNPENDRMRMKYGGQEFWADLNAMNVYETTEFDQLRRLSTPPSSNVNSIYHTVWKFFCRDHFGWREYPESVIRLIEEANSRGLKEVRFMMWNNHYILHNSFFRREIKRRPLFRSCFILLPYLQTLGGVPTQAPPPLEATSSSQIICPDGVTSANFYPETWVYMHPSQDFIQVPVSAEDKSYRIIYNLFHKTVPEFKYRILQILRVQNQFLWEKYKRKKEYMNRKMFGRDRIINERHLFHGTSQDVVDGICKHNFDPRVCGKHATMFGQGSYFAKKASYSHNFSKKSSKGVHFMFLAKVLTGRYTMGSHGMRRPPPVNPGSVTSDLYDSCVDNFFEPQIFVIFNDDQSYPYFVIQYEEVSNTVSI
Test: Inhibition of the compound on PARP7 protein activity (ADP-ribosylation, chemiluminescence)
Format: biochemical
MEASUREMENT NAME: IC50

What value of measured IC50 is listed for Cc1cc(NC(C)CCCNC(=O)c2cnc(-c3ncc(C(F)(F)F)cn3)cn2)c(C#N)c(=O)[nH]1 (stereo not shown) ? 10 to 30 nM
